IC50 listing for selected compounds.
Tested system: AM2 receptor-expressing cells (1321N1 cells transfected with CALCRL+RAMP3) (Homo sapiens, UniProt O60896+Q16602)
Construct: host or cells: 1321N1 cells
Sequence (Q16602 23-461): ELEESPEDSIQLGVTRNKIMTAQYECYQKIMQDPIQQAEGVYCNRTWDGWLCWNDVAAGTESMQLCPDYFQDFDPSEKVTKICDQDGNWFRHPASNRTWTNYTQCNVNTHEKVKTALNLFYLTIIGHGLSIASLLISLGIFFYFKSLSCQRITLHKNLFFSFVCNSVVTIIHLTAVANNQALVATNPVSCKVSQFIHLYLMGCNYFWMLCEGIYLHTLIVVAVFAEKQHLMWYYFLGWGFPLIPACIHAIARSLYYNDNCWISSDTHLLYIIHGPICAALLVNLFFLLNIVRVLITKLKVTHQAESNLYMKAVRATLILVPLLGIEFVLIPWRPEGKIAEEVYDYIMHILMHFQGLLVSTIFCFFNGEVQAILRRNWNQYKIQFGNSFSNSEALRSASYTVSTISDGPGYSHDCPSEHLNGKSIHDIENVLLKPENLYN
Sequence (O60896 24-148): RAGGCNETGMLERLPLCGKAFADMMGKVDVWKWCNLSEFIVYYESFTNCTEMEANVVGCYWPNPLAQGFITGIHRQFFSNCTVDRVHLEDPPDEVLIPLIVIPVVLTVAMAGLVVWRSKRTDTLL
Run description: AM2 receptor inhibition, LANCE cAMP agonist-antagonist competition assay (AM2 D2 protocol)
Type: cell-based
Condition info: inhibition of AM induced cAMP in 1321N1 cells expressing CALCRL+RAMP3; read-out: AM2 D2 protocol: pIC50 (converted)
Number only, in nM; omit the unit.

// worked examples, IC50 included
CC(C)(C)C(=O)N(CC(=O)Nc1ccc2c(c1)CC1(C2)C(=O)Nc2ncccc21)[C@H]1CCNC1 (stereo partly drawn) [Example 24]    132
C[C@@H]1CNC[C@@H](N(CC(=O)Nc2ccc3c(c2)C[C@@]2(C3)C(=O)Nc3ncccc32)C(=O)C(C)(C)C)C1 (relative stereo) [Example 27]    51.3

Moving on to another compound below.
Query: Quick one: IC50 for CC(C)(C)C(=O)N(CC(=O)Nc1ccc2c(c1)C[C@@]1(C2)C(=O)Nc2ncccc21)[C@H]1CCCNC1 [Example 2] ?
Result: 3.02
